measured-on: Cytochrome P450 2C19 (Homo sapiens, UniProt P33261)
Sequence (P33261 whole entry): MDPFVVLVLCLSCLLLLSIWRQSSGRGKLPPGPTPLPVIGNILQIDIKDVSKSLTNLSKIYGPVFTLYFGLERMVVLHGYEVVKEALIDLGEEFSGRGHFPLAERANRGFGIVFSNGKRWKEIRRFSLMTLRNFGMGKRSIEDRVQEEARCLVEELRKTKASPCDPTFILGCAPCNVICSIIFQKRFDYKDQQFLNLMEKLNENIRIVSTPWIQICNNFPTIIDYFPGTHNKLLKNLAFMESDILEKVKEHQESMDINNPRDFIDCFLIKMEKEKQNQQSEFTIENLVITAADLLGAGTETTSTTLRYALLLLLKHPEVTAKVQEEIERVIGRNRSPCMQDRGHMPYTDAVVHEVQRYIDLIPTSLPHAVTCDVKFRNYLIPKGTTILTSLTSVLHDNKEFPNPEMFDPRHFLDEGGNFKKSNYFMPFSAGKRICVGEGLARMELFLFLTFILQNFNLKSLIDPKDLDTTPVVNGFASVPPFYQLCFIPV
reported-property: pIC50
One number for each entry, as −log10 of the molar value.

[Q] Which pIC50 value is on record for `Fc1cccc2c1CCC1(CCN(c3ccc(-c4nnc(Cc5cccnc5)o4)nn3)CC1)O2` ?
[A] 4.85

* * *

protocol-details: Aqueous solubility of the compound at neutral JP-2 solution of pH 6.8 by HPLC analysis
Assay type: physicochemical
reported-property: solubility

Fill in solubility for each of the 2 compounds listed.
1. Cc1cccc2c1CCC1(CCN(c3ccc(-c4nnc(Cc5cccnc5)o4)nn3)CC1)O2
2. Fc1cccc2c1CCC1(CCN(c3ccc(-c4nnc(Cc5cccnc5)o4)nn3)CC1)O2

[A]
1: < 0.5 µM; 2: < 0.5 µM

Count: 3. Required value per item: solubility.
1. Clc1cccc2c1CCC1(CCN(c3ccc(-c4nnc(Cc5cccnc5)o4)nn3)CC1)O2
2. c1cncc(Cc2nnc(-c3ccc(N4CCC5(CCc6ccccc6O5)CC4)nn3)o2)c1
3. FC(F)(F)c1cccc2c1CCC1(CCN(c3ccc(-c4nnc(Cc5cccnc5)o4)nn3)CC1)O2

[A]
1: < 0.5 µM; 2: 4.2 µM; 3: < 0.5 µM

* * *

protocol-details: Half life in C57BL/6J mouse at 5 mg/kg, iv
Format: ADME, organism-based
Design: dose 5 mg/kg, route intravenous
test-parameters: in vivo
reported-property: half-life (min)
Numbers only, in min.

[Q] Look up half-life: `Fc1cccc2c1CCC1(CCN(c3ccc(-c4nnc(Cc5cccnc5)o4)nn3)CC1)O2`
[A] 24

* * *

protocol-details: Aqueous solubility of the compound at acidic JP-1 solution of pH 1.2 by HPLC analysis
Format: physicochemical
For each record, write down the corresponding solubility.
Give bare numbers, in µM.

Fill in solubility for each of the 3 compounds listed.
1. FC(F)(F)c1cccc2c1CCC1(CCN(c3ccc(-c4nnc(Cc5cccnc5)o4)nn3)CC1)O2
2. c1cncc(Cc2nnc(-c3ccc(N4CCC5(CCc6ccccc6O5)CC4)nn3)o2)c1
3. Cc1cccc2c1CCC1(CCN(c3ccc(-c4nnc(Cc5cccnc5)o4)nn3)CC1)O2

[A]
88
92
91

* * *

Kindly state Cmax for each of the entries shown.
protocol-details: Cmax in C57BL/6J mouse at 20 mg/kg, po up to 8 hrs
Assay type: ADME, organism-based
Parameters: dose 20 mg/kg, route oral
test-parameters: in vivo

| structure-smiles-string | Cmax |
| --- | --- |
| Fc1cccc2c1CCC1(CCN(c3ccc(-c4nnc(Cc5cccnc5)o4)nn3)CC1)O2 | 2900 ng/mL |
| c1cncc(Cc2nnc(-c3ccc(N4CCC5(CCc6ccccc6O5)CC4)nn3)o2)c1 | 1300 ng/mL |

For every record below, what is its Cmax?
1. Clc1cccc2c1CCC1(CCN(c3ccc(-c4nnc(Cc5cccnc5)o4)nn3)CC1)O2
2. Cc1cccc2c1CCC1(CCN(c3ccc(-c4nnc(Cc5cccnc5)o4)nn3)CC1)O2

[A]
690 ng/mL
1100 ng/mL

* * *

protocol-details: Clearance in C57BL/6J mouse at 5 mg/kg, iv up to 8 hrs
Type: ADME, organism-based
Set-up: dose 5 mg/kg, route intravenous
test-parameters: in vivo
reported-property: clearance (mL/min/kg)
One number for each entry, in mL/min/kg.

[Q] Could you share which clearance value was measured for `Fc1cccc2c1CCC1(CCN(c3ccc(-c4nnc(Cc5cccnc5)o4)nn3)CC1)O2` ?
[A] 53
